Each record here notes measured logP.
Reply with just the number.

MOLECULE	REPORTED MEASUREMENT
c1nc(N2CCCCC2)c2[nH]cnc2n1	2.11

Now let's try a different one.
Problem: Which measured logP value corresponds to c1ccc2c(c1)Cc1ncccc1-2 ?
Solution: 2.59

----------
Response key: condition met means logP >= 3; condition not met means logP < 3.

Problem: Answer whether logP of CC(=NNC(=O)c1ccccc1)c1cnccn1 is greater than or equal to 3.
Solution: condition not met

Problem: Answer whether logP of Cc1c(C)c2cc3c(C)coc3c(C)c2oc1=O is greater than or equal to 3.
Solution: condition met

Problem: Answer whether logP of CC(C)(C)OC(=O)NC(Cc1c[nH]c2ccccc12)C(=O)O (stereo unspecified) is greater than or equal to 3.
Solution: condition not met

Problem: Answer whether logP of COC(=O)c1ccc(Cl)cc1[N+](=O)[O-] is greater than or equal to 3.
Solution: condition not met

Problem: Answer whether logP of Cc1cc2c(nn1)-c1ccccc1C2=O is greater than or equal to 3.
Solution: condition not met

----------
Lab note - cut at 2 for logP: T if strictly below, F if not.

COMPOUND	CLASSIFICATION
O=c1ccc2ccc3occc3c2[nH]1	T
CCCNC(=O)c1cccc2nc(N)nc(N)c12	T
Cn1ccnc1CC1COc2ccccc2O1 (configuration not stated)	T

Problem: Consider CCCCCCCCCCNCCO . Does its logP lie strictly below 2?
Solution: F

Problem: Consider CC(=O)c1c2ccccc2cc2ccccc12 . Does its logP lie strictly below 2?
Solution: F

Problem: Consider OCC1OC(Oc2ccc(-c3ccccc3)cc2)C(O)C(O)C1O (configuration not stated) . Does its logP lie strictly below 2?
Solution: T

Problem: Consider CCCC(=NOCC)C1=C(O)CC2(CCC(CC)CC2)OC1=O (configuration not stated) . Does its logP lie strictly below 2?
Solution: F

----------
Where a SMILES comes first, the peptide text is derived from it.
READOUT NAME: logP

COMPOUND	logP
O=C(O)Cc1ccccc1Nc1cc(Cl)cc(Cl)c1	5.07
Cc1ccccc1C1CCc2c(C(=O)N(C)C)cn3c(C)c(C)nc3c2O1 (stereo unspecified)	3.5
CC(C)CCNc1ncnc2c1ncn2C1OC(CO)C(O)C1O (stereo unspecified)	1.6

Problem: Which measured logP value corresponds to NC(=O)c1cc(OCCNCC(O)CON=C(C2CC2)C2CC2)ccc1O (stereo unspecified) ?
Solution: 1.69

Problem: Which measured logP value corresponds to Nc1ccc2nc3ccccn3c2n1 ?
Solution: 1.38

Problem: Which measured logP value corresponds to COC(=O)C1=C(C)NC(C)=C(C(=O)OC)C1c1cccc2c1OCO2 ?
Solution: 3.46

Problem: Which measured logP value corresponds to CCON=C(CC)C1=C(O)CC(c2cccc(Oc3ncc(C(F)(F)F)cc3F)c2)CC1=O (stereo unspecified) ?
Solution: 4.63

Problem: Which measured logP value corresponds to Cc1cccc(C)c1-c1cnc[nH]1 ?
Solution: 2.38

Problem: Which measured logP value corresponds to Cc1coc2nc3oc(=O)cc(C)c3cc12 ?
Solution: 1.64

Problem: Which measured logP value corresponds to COc1c([N+](=O)[O-])cc(C(=O)O)cc1[N+](=O)[O-] ?
Solution: 1.73

Problem: Which measured logP value corresponds to O=C(NCC(F)(F)F)NS(=O)(=O)c1cnccc1NC1CCCCCCC1 ?
Solution: 4.22

Problem: Which measured logP value corresponds to CCC(C)C(NC(=O)C(C)NC(=O)C(CC(C)C)NC(=O)C(N)CO)C(=O)NC(C(=O)O)C(C)C (stereo unspecified) (H-SLAIV-OH; configuration not given here) ?
Solution: -1.94

Problem: Which measured logP value corresponds to O=C(O)c1cc(O)c(Br)c(O)c1 ?
Solution: 1.75

Problem: Which measured logP value corresponds to CCOc1cccc(NC(=O)OCCN2CCCCC2)c1 ?
Solution: 3.77

Problem: Which measured logP value corresponds to C[C@@H]1N=C(c2ccccc2Cl)c2cc([N+](=O)[O-])ccc2NC1=O ?
Solution: 2.72

Problem: Which measured logP value corresponds to O=C(NCCCCCOCCCN1CCOCC1)NC12CC3CC(CC(C3)C1)C2 ?
Solution: 2.7

Problem: Which measured logP value corresponds to Cc1ccccc1Cc1c[nH]cn1 ?
Solution: 2.31

Problem: Which measured logP value corresponds to Cc1ccc(S(=O)(=O)C2(C(=O)OC(C)C)CCCCC2)cc1 ?
Solution: 3.21

Problem: Which measured logP value corresponds to COc1ccccc1N1CCN(CCNCC(O)CON=C(C2CC2)C2CC2)CC1 (stereo unspecified) ?
Solution: 3.21

Problem: Which measured logP value corresponds to COCCNC(=O)Cn1cnc([N+](=O)[O-])n1 ?
Solution: -0.85

Problem: Which measured logP value corresponds to NC1=NCC(CN2CC=CCC2)O1 (stereo unspecified) ?
Solution: 0.19

Problem: Which measured logP value corresponds to CCN(CC)c1nc(N)nc(Cl)n1 ?
Solution: 2.14

----------
READOUT NAME: logP
Reply with just the number.

Example results:
COMPOUND	READOUT NAME	REPORTED MEASUREMENT
COc1cccc2c1CCC(N)C2C (configuration not stated)	logP	2.26
O=C1c2ccccc2-c2cc([N+](=O)[O-])ccc21	logP	3.06
COc1ccc(-n2nnnc2N)cc1	logP	0.85
CC(C)CC(=O)OCC(=O)C1(O)C(C)CC2C3CCC4=CC(=O)C=CC4(C)C3(F)C(O)CC21C (configuration not stated)	logP	3.8

Problem: Which measured logP value corresponds to CCCSc1cccc2nc(N)nc(N)c12 ?
Solution: 2.85

----------
READOUT NAME: logP

MOLECULE	logP
CC(=O)OC1C(CCl)OC(n2cc(F)c(=O)[nH]c2=O)C1OC(C)=O (configuration not stated)	0.38
Cn1c(N)nc2c3cccnc3ccc21	1.47
CC(C)=CCCC(C)=CCCC(=CCCC(C)=CCO)CO	4.7
CON(C)C(=O)Nc1cccc(CO)c1	0.62
Cc1nc2c3c(c(C(=O)N(C)C)cn2c1CO)CCC(c1ccccc1)O3 (configuration not stated)	1.72
CNC(=S)NN=C(c1cccc([N+](=O)[O-])c1)c1ccccn1	2.14

Problem: Which measured logP value corresponds to CC(C)NC(=NC#N)NS(=O)(=O)c1cnccc1Nc1cccc(C(F)(F)F)c1 ?
Solution: 2.54

Problem: Which measured logP value corresponds to Cc1ccccc1N1CCN(CC2CN=C(N)O2)CC1 (configuration not stated) ?
Solution: 1.78

Problem: Which measured logP value corresponds to C=CC(=O)OC1CCCCC1 ?
Solution: 2.8

----------
Lab note - cut at 3 for logP: 1.0 if strictly below, 0.0 if not.

Check out these entries, answers already filled in.
COMPOUND	CLASSIFICATION
CC1=CCCC(C)C12CCC(C(C)(C)O)C2 (stereo unspecified)	0.0
COc1cc(OC)c2c(c1)OC(c1ccc(OC)c(OC)c1)C(O)C2 (stereo unspecified)	0.0

Problem: Consider CSCCC(NC(=O)C(Cc1ccccc1)NC(=O)CNC(=O)CNC(=O)C(N)Cc1ccc(O)cc1)C(=O)O (stereo unspecified) . Does its logP lie strictly below 3?
Solution: 1.0

Problem: Consider CCCCCCCCCCCCN(C)N=Nc1ccc(C(N)=O)cc1 . Does its logP lie strictly below 3?
Solution: 0.0

Problem: Consider CC(C)(C)c1cc(O)cc(C(C)(C)C)c1 . Does its logP lie strictly below 3?
Solution: 0.0

Problem: Consider C=CC(=O)OCCCOC(=O)C=C . Does its logP lie strictly below 3?
Solution: 1.0

----------
Lab note - cut at 2 for logP: Satisfied if strictly below, Not satisfied if not.

Problem: Consider CNc1nccn2c(Cc3ccccc3F)nnc12 . Does its logP lie strictly below 2?
Solution: Satisfied

Problem: Consider CC1(C)Oc2ccc(C#N)cc2C(N2CCCC2=O)C1O (stereo unspecified) . Does its logP lie strictly below 2?
Solution: Not satisfied

----------
Each record here notes measured logP.
Reply with just the number.

Example results:
COMPOUND	REPORTED MEASUREMENT
CCOP(=O)(OCC)C(C)(C)[N+]([O-])=Cc1ccccn1	0.68
CSC(=S)N1CCCCC1	1.7

Problem: Which measured logP value corresponds to C[N+](C)([O-])CCC(c1ccccc1)c1ccccc1 ?
Solution: 1.1

Problem: Which measured logP value corresponds to CC(C)(C)NCC(O)CON=C(C1CC1)C1CC1 (stereo not drawn) ?
Solution: 1.84

Problem: Which measured logP value corresponds to CN1COCc2c1ccc1cc3ccc(N)c(CO)c3nc21 ?
Solution: 1.64

----------
READOUT NAME: logP
Reply with just the number.

COMPOUND	REPORTED MEASUREMENT
CC1CCCCN1CC1CN=C(N)O1 (stereo not given)	0.73
COc1ccc(CNCC(O)CON=C(C2CC2)C2CC2)c(OC)c1 (stereo not given)	2.22
CC(C)(C)c1ccc(C(CCN2CCCC2)c2ccccc2)cc1 (stereo not given)	6.72

Problem: Which measured logP value corresponds to CCCCC(=O)OCOCC(=O)C1(O)Cc2c(O)c3c(c(O)c2C(OC2CC(N(C)C)C(O)C(C)O2)C1)C(=O)c1c(OC)cccc1C3=O (stereo not given) ?
Solution: 2.82

Problem: Which measured logP value corresponds to O=C1CC=C2C3CC4N(CCC45c4ccccc4N1C25)C/C3=C\CO (stereo not given) ?
Solution: 1.37
